# Test system: G-401 tumor spheroids, viability % test/control
# Assay Remarks: Anticancer human tumor G-401 cell line growth inhibition;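 note: spheroids exposed to compound for 7 days; 100% = DMSO vehicle-treated spheroids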
# Details: second compound 0.003 µM; first compound 0.1 µM; active compounds read low; spheroids with HUVEC and MSC
Quantity Kind: viability, T/C (%)
Note: unit % is implicit; provide only the numeric part.

Compound: Cc1cc(C)c(CNC(=O)c2cc(-c3ccc(CN4CCOCC4)cc3)cc3c2cnn3C2CCCC2)c(=O)[nH]1 + CC[C@@]1(O)C(=O)OCc2c1cc1n(c2=O)Cc2cc3c(CN(C)C)c(O)ccc3nc2-1
Endpoint Result: 81.4
--
Compound: CC(C)n1c(=O)n(C)c2cnc3cc(F)c(-c4ccc(OCCCN5CCCCC5)nc4)cc3c21 + CC[C@@]1(O)C(=O)OCc2c1cc1n(c2=O)Cc2cc3c(CN(C)C)c(O)ccc3nc2-1
Endpoint Result: 20.1
--
Compound: [2H]c1nc(C)nc([2H])c1-c1cc(NC[C@@H](C)c2cccc3c(C(=O)NC)ccnc23)ncn1 + CC[C@@]1(O)C(=O)OCc2c1cc1n(c2=O)Cc2cc3c(CN(C)C)c(O)ccc3nc2-1
Endpoint Result: 94.3
--
Compound: CC(C)n1c(=O)n(C)c2cnc3cc(F)c(-c4ccc(OCCCN5CCCCC5)nc4)cc3c21 + COc1cc2c(cc1O)CCNC21CSC2c3c(OC(C)=O)c(C)c4c(c3C(COC1=O)N1C(O)C3Cc5cc(C)c(OC)c(O)c5C(C21)N3C)OCO4
Endpoint Result: 0.16
--
Compound: Cc1cc(C)c(CNC(=O)c2cc(-c3ccc(CN4CCOCC4)cc3)cc3c2cnn3C2CCCC2)c(=O)[nH]1 + COc1cc2c(cc1O)CCNC21CSC2c3c(OC(C)=O)c(C)c4c(c3C(COC1=O)N1C(O)C3Cc5cc(C)c(OC)c(O)c5C(C21)N3C)OCO4
Endpoint Result: 0.13

Case CC1COCCN1c1cc(-c2ccnn2C)c2ccnc(-c3ccn[nH]3)c2n1 (configuration not stated) + CC[C@@]1(O)C(=O)OCc2c1cc1n(c2=O)Cc2cc3c(CN(C)C)c(O)ccc3nc2-1 , G-401 tumor spheroids, viability % test/control, viability, T/C recorded as 17.3

Case COc1cc(C)[nH]c(=O)c1CN1CCc2c(Cl)cc(C(OC)C3COC3)c(Cl)c2C1=O (configuration not stated) + COc1cc2c(cc1O)CCNC21CSC2c3c(OC(C)=O)c(C)c4c(c3C(COC1=O)N1C(O)C3Cc5cc(C)c(OC)c(O)c5C(C21)N3C)OCO4 , G-401 tumor spheroids, viability % test/control, viability, T/C recorded as 0.12

Case CC1COCCN1c1cc(-c2ccnn2C)c2ccnc(-c3ccn[nH]3)c2n1 (configuration not stated) + COc1cc2c(cc1O)CCNC21CSC2c3c(OC(C)=O)c(C)c4c(c3C(COC1=O)N1C(O)C3Cc5cc(C)c(OC)c(O)c5C(C21)N3C)OCO4 , G-401 tumor spheroids, viability % test/control, viability, T/C recorded as 0.14

Case COc1ccc([C@@H](O)c2cc(-c3ncnc4cc(N5CCOCC5)ccc34)c(F)cc2Cl)nn1 + CC[C@@]1(O)C(=O)OCc2c1cc1n(c2=O)Cc2cc3c(CN(C)C)c(O)ccc3nc2-1 , G-401 tumor spheroids, viability % test/control, viability, T/C recorded as 84.2

Case [2H]c1nc(C)nc([2H])c1-c1cc(NC[C@@H](C)c2cccc3c(C(=O)NC)ccnc23)ncn1 + COc1cc2c(cc1O)CCNC21CSC2c3c(OC(C)=O)c(C)c4c(c3C(COC1=O)N1C(O)C3Cc5cc(C)c(OC)c(O)c5C(C21)N3C)OCO4 , G-401 tumor spheroids, viability % test/control, viability, T/C recorded as 0.17

Case COc1ccc([C@@H](O)c2cc(-c3ncnc4cc(N5CCOCC5)ccc34)c(F)cc2Cl)nn1 + COc1cc2c(cc1O)CCNC21CSC2c3c(OC(C)=O)c(C)c4c(c3C(COC1=O)N1C(O)C3Cc5cc(C)c(OC)c(O)c5C(C21)N3C)OCO4 , G-401 tumor spheroids, viability % test/control, viability, T/C recorded as 0.25

Case COc1cc(C)[nH]c(=O)c1CN1CCc2c(Cl)cc(C(OC)C3COC3)c(Cl)c2C1=O (configuration not stated) + CC[C@@]1(O)C(=O)OCc2c1cc1n(c2=O)Cc2cc3c(CN(C)C)c(O)ccc3nc2-1 , G-401 tumor spheroids, viability % test/control, viability, T/C recorded as 52.9
